system: CH3/HeJ mice; test: Tail Suspension Test (Acute); assay type: in vivo, mouse; conditions: p.o.; CH3/HeJ mice; 7-min session
This section presents compounds with their documented Mobility Emax % of C values.

Would you please look over these solved cases?
{"columns": ["Compound", "Property Name", "Data Value"],
 "data": [
  ["CNCCCN1c2ccccc2CCc2ccccc21 [DMI, desipramine]", "Mobility Emax % of C", "195.7 % of C"],
  ["NS(=O)(=O)NC[C@H]1COc2cc(Cl)ccc2O1 [Compound #8]", "Mobility Emax % of C", "95.6 % of C"],
  ["COc1ccc(C(CN(C)C)C2(O)CCCCC2)cc1 (stereo not shown) [Venlafaxine, venlafaxine, reference compound]", "Mobility Emax % of C", "412.6 % of C"]
]}

Readout Mobility Emax % of C for CNCC[C@H](Oc1cccc2ccccc12)c1cccs1 [DLX, duloxetine] , test system CH3/HeJ mice, was 175.5 % of C
